Listing of entries alongside the reported koff.
testedTarget: T1, cynomolgus soluble urokinase plasminogen activator receptor (cynomolgus suPAR) (cynomolgus, UniProt Q9GK78 23-303, limits assumed)
T1 construct: also called cynomolgus uPAR; cynoPLAUR-His
T1 sequence (Q9GK78 23-303 limits assumed): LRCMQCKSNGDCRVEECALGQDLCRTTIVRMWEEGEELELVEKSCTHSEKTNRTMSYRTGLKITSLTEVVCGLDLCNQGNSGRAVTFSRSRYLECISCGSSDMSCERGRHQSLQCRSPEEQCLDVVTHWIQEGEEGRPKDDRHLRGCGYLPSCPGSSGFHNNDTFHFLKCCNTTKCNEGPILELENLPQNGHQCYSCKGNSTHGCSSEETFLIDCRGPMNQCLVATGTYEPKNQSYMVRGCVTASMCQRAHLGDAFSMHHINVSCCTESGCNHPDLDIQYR
experiment: off-rate screen of scFv clones (kdis), Octet BLI
measureName: koff

{"binder": "suPAR_DB04_G02 (scFv, V domains shown, scFv clone from phage display) VH: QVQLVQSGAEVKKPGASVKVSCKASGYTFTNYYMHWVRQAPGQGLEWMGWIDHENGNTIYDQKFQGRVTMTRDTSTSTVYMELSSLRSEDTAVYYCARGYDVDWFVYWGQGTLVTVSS VL: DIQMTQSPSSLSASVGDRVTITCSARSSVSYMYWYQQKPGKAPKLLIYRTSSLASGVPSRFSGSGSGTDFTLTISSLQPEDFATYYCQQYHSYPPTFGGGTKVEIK", "valueMeasured": "0.000388 s⁻¹"}
{"binder": "suPAR_DB04_E11 (scFv, V domains shown, scFv clone from phage display) VH: QVQLVQSGAEVKKPGASVKVSCKASGYTFTNYYVHWVRQAPGQGLEWMGWIDHENGNTIYDQKFQGRVTMTRDTSTSTVYMELSSLRSEDTAVYYCARGYDVDWFVYWGQGTLVTVSS VL: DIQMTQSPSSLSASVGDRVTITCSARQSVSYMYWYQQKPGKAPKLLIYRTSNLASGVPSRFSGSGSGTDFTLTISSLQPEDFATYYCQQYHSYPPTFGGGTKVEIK", "valueMeasured": "0.000158 s⁻¹"}
{"binder": "suPAR_DB04_G03 (scFv, V domains shown, scFv clone from phage display) VH: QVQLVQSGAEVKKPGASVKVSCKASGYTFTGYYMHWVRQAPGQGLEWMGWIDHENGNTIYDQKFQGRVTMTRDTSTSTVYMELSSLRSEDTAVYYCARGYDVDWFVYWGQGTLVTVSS VL: DIQMTQSPSSLSASVGDRVTITCSASSSVSYMYWYQQKPGKAPKLLIYRTSNLQSGVPSRFSGSGSGTDFTLTISSLQPEDFATYYCQQYHSYPPTFGGGTKVEIK", "valueMeasured": "0.000747 s⁻¹"}
{"binder": "suPAR_DB04_D05 (scFv, V domains shown, scFv clone from phage display) VH: QVQLVQSGAEVKKPGASVKVSCKASGYTFTTYYMHWVRQAPGQGLEWVGWIDPHSGGTNYAQKFQGRVTMTRDTSTSTVYMELSSLRSEDTAVYYCARGYDVDWFVYWGQGTLVTVSS VL: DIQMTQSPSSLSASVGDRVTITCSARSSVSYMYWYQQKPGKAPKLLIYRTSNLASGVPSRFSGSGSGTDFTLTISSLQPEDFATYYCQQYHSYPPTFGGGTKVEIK", "valueMeasured": "5.44e-05 s⁻¹"}
{"binder": "suPAR_DB04_E09 (scFv, V domains shown, scFv clone from phage display) VH: QVQLVQSGAEVKKPGASVKVSCKASGDTFTDYYIHWVRQAPGQGLEWMGWIDHENGSTSYDQKFQGRVTMTRDTSTSTVYMELSSLRSEDTAVYYCARGYDVDWFVYWGQGTLVTVSS VL: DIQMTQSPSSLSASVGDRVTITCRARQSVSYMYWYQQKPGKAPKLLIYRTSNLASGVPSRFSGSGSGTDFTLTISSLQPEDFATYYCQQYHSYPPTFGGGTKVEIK", "valueMeasured": "0.000446 s⁻¹"}
{"binder": "suPAR_DB04_C11 (scFv, V domains shown, scFv clone from phage display) VH: QVQLVQSGAEVKKPGASVKVSCKASGYSFTDYYMHWVRQAPGQGLEWMGWIDPENGSTIYDQKFQGRVTMTRDTSTSTVYMELSSLRSEDTAVYYCARGYDVDWFVYWGQGTLVTVSS VL: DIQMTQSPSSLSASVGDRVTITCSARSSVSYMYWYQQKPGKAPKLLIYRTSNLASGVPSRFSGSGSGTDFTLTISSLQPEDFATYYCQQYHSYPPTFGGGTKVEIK", "valueMeasured": "0.000483 s⁻¹"}
{"binder": "suPAR_DB04_E03 (scFv, V domains shown, scFv clone from phage display) VH: QVQLVQSGAEVKKPGASVKVSCKASGYTFTNYYMHWVRQAPGQGLEWMGWIDHEGGSTIYAQKFQGRVTMTRDTSTSTVYMELSSLRSEDTAVYYCARGYDVDWFVYWGQGTLVTVSS VL: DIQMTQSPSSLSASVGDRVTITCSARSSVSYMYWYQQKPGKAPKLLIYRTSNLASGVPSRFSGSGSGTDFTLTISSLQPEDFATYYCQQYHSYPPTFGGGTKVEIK", "valueMeasured": "0.000224 s⁻¹"}

Origin of values: patent US20250215104A1
